protocolDescription: Oral exposure in cynomolgus monkeys, compound alone or with excipient in capsules; plasma by LC-MS/MS
Type: in vivo
measurementSetup: male, cynomolgus monkey, plasma, po, 50 mg, Table 2: oral, enteric capsule, dose 50 mg, + 275 mg sodium phytate; read-out: Cmax
measuredEndpoint: Cmax (ng/mL)
Please reply with the bare figure in ng/mL and do not write the unit itself.

Q: What value of Cmax has been recorded for this entry: C[C@H](Nc1cc(Cl)nc2c1cnn2[C@@H]1O[C@H](COP(=O)(O)CP(=O)(O)O)[C@@H](O)[C@H]1O)c1ccccc1F [Ia (•3Na)]
Ans: 3680

====

protocolDescription: Oral exposure in cynomolgus monkeys, compound alone or with excipient in capsules; plasma by LC-MS/MS
Assay type: in vivo
measurementSetup: male, cynomolgus monkey, plasma, po, 10 mg, enteric capsule, with 275 mg sodium phytate (Sigma-Aldrich), fasted
measuredEndpoint: AUC(0-inf) (ng·h/mL)
Please reply with the bare figure in ng·h/mL and do not write the unit itself.

Q: What value of AUC(0-inf) has been recorded for this entry: C[C@H](Nc1nc(Cl)nc2c1cnn2[C@@H]1O[C@H](COP(=O)(O)CP(=O)(O)O)[C@@H](O)[C@H]1O)c1ccccc1
Ans: 6010
